Every entry's value here was drawn from patent US20250129078A1.

Target: UniProt:P00533
Sequence (P00533 25-1210): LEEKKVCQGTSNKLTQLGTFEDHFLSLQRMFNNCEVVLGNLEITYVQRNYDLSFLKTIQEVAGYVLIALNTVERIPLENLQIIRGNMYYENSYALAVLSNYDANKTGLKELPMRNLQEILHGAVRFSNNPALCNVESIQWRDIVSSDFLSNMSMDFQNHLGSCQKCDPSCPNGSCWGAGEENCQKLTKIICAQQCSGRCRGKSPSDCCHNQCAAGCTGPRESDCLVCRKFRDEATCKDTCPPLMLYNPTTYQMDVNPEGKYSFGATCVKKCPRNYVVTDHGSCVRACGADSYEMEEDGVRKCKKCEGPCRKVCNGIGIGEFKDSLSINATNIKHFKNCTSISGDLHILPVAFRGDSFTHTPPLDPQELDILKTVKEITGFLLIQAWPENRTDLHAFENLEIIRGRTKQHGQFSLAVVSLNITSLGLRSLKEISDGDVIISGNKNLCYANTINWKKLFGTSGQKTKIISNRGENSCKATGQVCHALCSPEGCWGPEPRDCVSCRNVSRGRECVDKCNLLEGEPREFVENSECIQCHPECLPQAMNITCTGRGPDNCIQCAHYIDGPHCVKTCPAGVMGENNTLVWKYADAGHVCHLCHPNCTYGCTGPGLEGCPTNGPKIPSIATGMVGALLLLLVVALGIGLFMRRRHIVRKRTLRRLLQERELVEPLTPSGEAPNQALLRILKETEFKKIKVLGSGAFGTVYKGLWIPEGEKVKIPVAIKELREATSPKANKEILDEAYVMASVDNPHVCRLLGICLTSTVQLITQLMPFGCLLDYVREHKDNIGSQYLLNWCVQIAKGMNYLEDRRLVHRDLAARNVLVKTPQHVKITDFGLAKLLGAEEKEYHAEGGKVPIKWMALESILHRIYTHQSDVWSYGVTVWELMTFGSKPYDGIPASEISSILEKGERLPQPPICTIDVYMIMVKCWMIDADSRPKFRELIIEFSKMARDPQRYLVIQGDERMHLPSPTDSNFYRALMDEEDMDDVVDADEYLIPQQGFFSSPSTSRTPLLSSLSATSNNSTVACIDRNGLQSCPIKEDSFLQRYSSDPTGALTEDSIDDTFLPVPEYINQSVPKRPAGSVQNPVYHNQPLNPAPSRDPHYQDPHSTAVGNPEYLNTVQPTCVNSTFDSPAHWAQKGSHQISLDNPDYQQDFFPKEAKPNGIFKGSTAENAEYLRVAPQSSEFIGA
# reported IC50; entries follow

INSERT INTO measurements (compound, system, measured_parameter, recorded_result) VALUES
  ('C=CC(=O)N[C@@H]1CCCN(c2ncc3ncnc(Nc4ccc(Oc5ccc6c(c5)nnn6C)c(C)c4F)c3n2)C1', 'UniProt:P00533', 'IC50', '100 to 500 nM');

Prompt: Given the compound C=CC(=O)N1CCC12CCN(c1ncc3ncnc(Nc4ccc(Oc5ccc6c(c5)nnn6C)c(C)c4)c3n1)C2 (stereo not shown) , what is its reported IC50?
Response: 50 to 100 nM

Prompt: Record request: IC50 value, item "C=CC(=O)N1CCN(c2ncc3ncnc(Nc4c(F)cc(Oc5ccc6c(c5)nnn6C)cc4F)c3n2)CC1"
Response: 100 to 500 nM

Prompt: Requested field: IC50. Item: C=CC(=O)N1C[C@@H]2CCN(c3ccc4ncnc(Nc5ccc(Oc6ccc7c(c6)nnn7C)c(C)c5)c4n3)[C@@H]2C1 (stereo in doubt)
Response: 100 to 500 nM

Prompt: Please give the measured IC50 for this compound: "C=CC(=O)N1CCN(c2ncc3ncnc(Nc4cc(Cl)c(Oc5ccc6c(c5)nnn6C)cc4F)c3n2)CC1"
Response: 100 to 500 nM

Prompt: # input compound: "C=CC(=O)N1CCN(c2ncc3ncnc(Nc4ccc(Oc5ccc6c(c5)nnn6C)c(C)c4)c3n2)C[C@@H]1C" ; wanted: its IC50
Response: 100 to 500 nM

Prompt: Recorded IC50 for "C=CC(=O)N1CCC(Oc2ncc3ncnc(Nc4ccc(Oc5ccc6c(c5)nnn6C)c(C)c4)c3n2)CC1" , please?
Response: < 50 nM

----------
Biological target: ErbB2 V777L (Homo sapiens (Human), UniProt P04626, V777L)
Sequence (P04626 23-1255 V777L): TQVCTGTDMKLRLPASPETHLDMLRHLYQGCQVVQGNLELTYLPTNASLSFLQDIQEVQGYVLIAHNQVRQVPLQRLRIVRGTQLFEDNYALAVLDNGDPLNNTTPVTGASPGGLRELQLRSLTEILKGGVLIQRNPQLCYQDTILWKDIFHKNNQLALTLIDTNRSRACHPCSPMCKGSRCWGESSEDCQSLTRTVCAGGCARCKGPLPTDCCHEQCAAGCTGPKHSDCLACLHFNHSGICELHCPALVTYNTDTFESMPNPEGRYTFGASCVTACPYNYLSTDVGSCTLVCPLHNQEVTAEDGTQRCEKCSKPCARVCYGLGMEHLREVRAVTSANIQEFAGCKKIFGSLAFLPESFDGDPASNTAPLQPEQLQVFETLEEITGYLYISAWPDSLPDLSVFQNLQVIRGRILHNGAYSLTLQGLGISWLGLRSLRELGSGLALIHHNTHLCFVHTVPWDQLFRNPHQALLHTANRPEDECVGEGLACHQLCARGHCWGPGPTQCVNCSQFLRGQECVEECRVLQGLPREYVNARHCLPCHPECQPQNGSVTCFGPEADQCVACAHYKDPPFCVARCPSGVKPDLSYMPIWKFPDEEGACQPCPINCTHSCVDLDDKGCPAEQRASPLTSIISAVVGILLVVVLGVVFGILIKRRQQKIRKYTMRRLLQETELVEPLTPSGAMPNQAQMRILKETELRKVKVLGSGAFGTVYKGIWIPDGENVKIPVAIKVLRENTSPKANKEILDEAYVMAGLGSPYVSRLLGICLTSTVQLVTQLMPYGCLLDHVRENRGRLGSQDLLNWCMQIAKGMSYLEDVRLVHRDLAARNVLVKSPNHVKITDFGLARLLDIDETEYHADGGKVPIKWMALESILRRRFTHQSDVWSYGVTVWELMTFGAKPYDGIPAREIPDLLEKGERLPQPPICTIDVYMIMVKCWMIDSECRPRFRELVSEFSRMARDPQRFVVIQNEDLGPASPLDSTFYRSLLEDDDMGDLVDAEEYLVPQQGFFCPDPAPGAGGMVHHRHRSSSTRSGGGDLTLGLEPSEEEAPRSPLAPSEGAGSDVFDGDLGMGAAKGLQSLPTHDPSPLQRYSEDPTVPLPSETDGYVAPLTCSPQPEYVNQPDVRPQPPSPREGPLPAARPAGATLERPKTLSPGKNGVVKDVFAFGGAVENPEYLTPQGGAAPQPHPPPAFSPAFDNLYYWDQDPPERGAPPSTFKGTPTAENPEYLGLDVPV
Experiment: ErbB enzyme assay (CisBio HTRF-KinEASE-TK), ErbB2 V777L
Format: biochemical
pIC50: −log10 of the molar value. Where a name gives a salt, the structure may show the parent alone.
Measured Parameter: pIC50

INSERT INTO measurements (molecule, recorded_result) VALUES
  ('C=CC(=O)N1CCCN(c2ccc3ncnc(Nc4ccc(Oc5ccc6c(c5)nnn6C)c(C)c4)c3n2)C[C@H]1C', '6.00 to 6.30'),
  ('C=CC(=O)N1CCN(c2ccc3ncnc(Nc4ccc(Oc5ccc6c(c5)nnn6C)c(C)c4F)c3n2)C[C@@H]1C1CC1', '6.00 to 6.30'),
  ('C=CC(=O)N1CC2CC(C1)N2c1ncc2ncnc(Nc3ccc(Oc4ccc5c(c4)nnn5C)c(C)c3)c2n1', '6.30 to 7.00');

# evaluate next
Prompt: Provide the documented pIC50 with ErbB2 V777L (Homo sapiens (Human), UniProt P04626, V777L) as the system for C=CC(=O)N1CCN(c2ncc3ncnc(Nc4ccc(Oc5ccc6c(c5)nnn6C)c(C)c4)c3n2)[C@@H](C)C1 [Compound 18, trifluoroacetate]
Response: 7.00 to 7.30

----------
Target: ErbB2 V777L (Homo sapiens (Human), UniProt P04626, V777L)
Experiment: ErbB enzyme assay (CisBio HTRF-KinEASE-TK), ErbB2 V777L
Type: biochemical
The following compounds are listed with their measured IC50 values.

Worked cases, IC50 given:
INSERT INTO measurements (compound_structure_string, measured_parameter, recorded_result) VALUES
  ('C=CC(=O)N1CCN(c2ncc3ncnc(Nc4ccc(Oc5ccc6c(c5)nnn6C)c(C)c4F)c3n2)CC[C@@H]1C', 'IC50', '100 to 500 nM'),
  ('C=CC(=O)N1CCN(c2ncc3ncnc(Nc4cc(C)c(Oc5ccc6c(c5)ncn6C(F)F)cc4OC)c3n2)CC1', 'IC50', '50 to 100 nM'),
  ('C=C(F)C(=O)N1CCN(c2ccc3ncnc(Nc4ccc(Oc5ccc6c(c5)nnn6C)c(C)c4)c3n2)CC1', 'IC50', '100 to 500 nM'),
  ('C=CC(=O)N1CCN(c2ncc3ncnc(Nc4ccc(Oc5ccc6c(c5)nnn6C)c(C)c4)c3n2)CC[C@H]1C', 'IC50', '500 to 1000 nM'),
  ('C=CC(=O)N[C@@H]1C[C@@H](F)CN(c2ccc3ncnc(Nc4ccc(Oc5ccc6c(c5)nnn6C)c(C)c4F)c3n2)C1', 'IC50', '100 to 500 nM');

Prompt: Lab request: please report IC50 under test system ErbB2 V777L (Homo sapiens (Human), UniProt P04626, V777L) for "C=CC(=O)N1CCN(c2ccc3ncnc(Nc4ccc(Oc5ccc6c(c5)ncn6C(F)F)c(C)c4F)c3n2)C[C@@H]1C1CC1"
Response: 100 to 500 nM

Prompt: Lab request: please report IC50 under test system ErbB2 V777L (Homo sapiens (Human), UniProt P04626, V777L) for "C=CC(=O)N1CCC[C@H](N(C)c2ncc3ncnc(Nc4ccc(Oc5ccc6c(c5)nnn6C)c(C)c4)c3n2)C1"
Response: 50 to 100 nM
